Below, each entry is listed alongside its reported inhibition in vivo at 10 mg/kg.
Tested on: Rattus norvegicus
Experiment: Antihypertensive activity against DOCA-salt induced hypertension in albino rat assessed as reduction in systolic blood pressure at 10 mg/kg, po after 900 mins by tail-cuff method
Assay type: functional
Conditions: Artery, 15 h
Note: unit % is implicit; provide only the numeric part.

Field: example entries. Status: answers known.
{"Compound": "CC1=C(C(=O)Nc2ccc(F)cc2)C(c2ccc([N+](=O)[O-])cc2)N=C(SCc2ccc(F)cc2)N1 (stereo not given)", "inhibition in vivo at 10 mg/kg [%]": 13.8}
{"Compound": "CC1=C(C(=O)Nc2ccc(Br)cc2)C(c2ccc(Cl)cc2Cl)N=C(SCc2ccccc2Cl)N1 (stereo not given)", "inhibition in vivo at 10 mg/kg [%]": 16.4}
{"Compound": "CC1=C(C(=O)Nc2ccc([N+](=O)[O-])cc2)C(c2cccc([N+](=O)[O-])c2)N=C(SCc2ccccc2Cl)N1 (stereo not given)", "inhibition in vivo at 10 mg/kg [%]": 7.2}
{"Compound": "CC1=C(C(=O)Nc2ccc([N+](=O)[O-])cc2)C(c2cccc([N+](=O)[O-])c2)N=C(SCc2ccccc2)N1 (stereo not given)", "inhibition in vivo at 10 mg/kg [%]": 14.9}

Data point: COc1ccc(C2N=C(SCc3ccccc3)NC(C)=C2C(=O)Nc2ccc(F)cc2)cc1OC (stereo not given) ; inhibition in vivo at 10 mg/kg = 1

The reported numbers originate from ChEMBL document CHEMBL1275301.
